# Test system: UACC-257
# experiment: Growth inhibition of human UACC257 cells after 48 hrs by sulforhodamine B assay
# Type: functional
# run-conditions: UACC-257, 48 h, read-out: pTGI (converted)
Reported TGI values for a set of compounds
value-kind: TGI (µM)

chem-smiles: COCOc1cc(/C=C/c2cc(CO)c3c(c2)C[C@@H]2C(C)(C)[C@H](O)CC[C@@]2(C)O3)cc(OC)c1C/C=C(\C)CCC=C(C)C
reading-unit: µM
recorded-value: 39.8
//
chem-smiles: COc1cc(/C=C/c2cc3c(c(SC)c2)O[C@]2(C)CC[C@@H](O)C(C)(C)[C@H]2C3)cc(O)c1C/C=C(\C)CCC=C(C)C
reading-unit: µM
recorded-value: 64.6
//
chem-smiles: COCOc1cc(/C=C/c2cc(C=O)c3c(c2)C[C@@H]2C(C)(C)[C@H](O)CC[C@@]2(C)O3)cc(OC)c1C/C=C(\C)CCC=C(C)C
reading-unit: µM
recorded-value: 49

###

# System: PC-3
# experiment: Growth inhibition of human PC3 cells after 48 hrs by sulforhodamine B assay
# Type: functional
# run-conditions: PC-3, 48 h, read-out: pTGI (converted)
Reported TGI values for a set of compounds

chem-smiles: COc1cc(/C=C/c2cc3c(c(OC)c2)O[C@]2(C)CC[C@@H](O)C(C)(C)[C@H]2C3)cc(O)c1C/C=C(\C)CCC=C(C)C
value-modifier: =
TGI [µM]: 10

chem-smiles: COc1cc(/C=C/c2cc3c(c(SC)c2)O[C@]2(C)CC[C@@H](O)C(C)(C)[C@H]2C3)cc(O)c1C/C=C(\C)CCC=C(C)C
value-modifier: =
TGI [µM]: 51.3

chem-smiles: COCOc1cc(/C=C/c2cc(CO)c3c(c2)C[C@@H]2C(C)(C)[C@H](O)CC[C@@]2(C)O3)cc(OC)c1C/C=C(\C)CCC=C(C)C
value-modifier: >
TGI [µM]: 100

###

# System: SF-295
# experiment: Growth inhibition of human SF295 cells after 48 hrs by sulforhodamine B assay
# Assay type: functional
# run-conditions: SF-295, 48 h, read-out: GI50
value-kind: log10 GI50 (log10 of the value in nM)

chem-smiles: COc1cc(/C=C/c2cc(O)c3c(c2)C[C@@H]2C(C)(C)[C@H](O)CC[C@@]2(C)O3)cc(O)c1C/C=C(\C)CCC=C(C)C
recorded-value: 1.34

chem-smiles: COc1cc(/C=C/c2cc3c(c(SC)c2)O[C@]2(C)CC[C@@H](O)C(C)(C)[C@H]2C3)cc(O)c1C/C=C(\C)CCC=C(C)C
recorded-value: 3.58

chem-smiles: COCOc1cc(/C=C/c2cc(CO)c3c(c2)C[C@@H]2C(C)(C)[C@H](O)CC[C@@]2(C)O3)cc(OC)c1C/C=C(\C)CCC=C(C)C
recorded-value: 2.18

chem-smiles: COc1cc(/C=C/c2cc(F)c3c(c2)C[C@@H]2C(C)(C)[C@H](O)CC[C@@]2(C)O3)cc(O)c1C/C=C(\C)CCC=C(C)C
recorded-value: 3.70

chem-smiles: COc1cc(/C=C/c2cc3c(c(OC)c2)O[C@]2(C)CC[C@@H](O)C(C)(C)[C@H]2C3)cc(O)c1C/C=C(\C)CCC=C(C)C
recorded-value: 2.28

chem-smiles: COCOc1cc(/C=C/c2cc(C=O)c3c(c2)C[C@@H]2C(C)(C)[C@H](O)CC[C@@]2(C)O3)cc(OC)c1C/C=C(\C)CCC=C(C)C
recorded-value: 3.08

chem-smiles: COc1cc(/C=C/c2ccc3c(c2)C[C@@H]2C(C)(C)[C@H](O)CC[C@@]2(C)O3)cc(O)c1C/C=C(\C)CCC=C(C)C
recorded-value: 3.22
